SYSTEM TESTED: HLA-A*02:03
PROTOCOL NOTES: IEDB peptide-MHC binding, purified MHC/competitive/radioactivity; filed as Kd, often an IC50 or EC50 that approximates it; bounds were set here for any values at or beyond the usual limits of such assays
MEASUREMENT PARAMETERS: source organism: Vaccinia virus WR
Kindly state Kd for each of the entries shown.
Reply numerically in µM, unit not repeated.

In: I am curious: what Kd value has been reported for NVIGLIVIL ?
Out: 2.4

In: I am curious: what Kd value has been reported for IMEIVSHLRA ?
Out: 0.396

In: I am curious: what Kd value has been reported for GIKGLDERFV ?
Out: 0.844

In: I am curious: what Kd value has been reported for LMELPVKTDI ?
Out: 0.986

====

SYSTEM TESTED: HLA-A*03:01
PROTOCOL NOTES: IEDB peptide-MHC binding, purified MHC/competitive/radioactivity; filed as Kd, often an IC50 or EC50 that approximates it; bounds were set here for any values at or beyond the usual limits of such assays
MEASUREMENT PARAMETERS: source organism: Vaccinia virus WR
Kindly state Kd for each of the entries shown.

In: I am curious: what Kd value has been reported for EVGSIRCVKY ?
Out: ≥ 70.1 µM

In: I am curious: what Kd value has been reported for QLPKRGVRVR ?
Out: ≥ 22.6 µM

In: I am curious: what Kd value has been reported for AAKYVEHDPR ?
Out: ≥ 31 µM

In: I am curious: what Kd value has been reported for IQTSVNTVVR ?
Out: ≥ 39.7 µM

In: I am curious: what Kd value has been reported for DFDNLIGVR ?
Out: ≥ 78 µM

In: I am curious: what Kd value has been reported for WLSMTDEMR ?
Out: ≥ 78 µM

====

SYSTEM TESTED: HLA-A*11:01
PROTOCOL NOTES: IEDB peptide-MHC binding, purified MHC/competitive/radioactivity; filed as Kd, often an IC50 or EC50 that approximates it; bounds were set here for any values at or beyond the usual limits of such assays
MEASUREMENT PARAMETERS: source organism: SARS coronavirus Tor2
Could you mark each record true (1) if its Kd falls strictly under 300 nM, and false (0) if it equals or exceeds it?

In: Hello, is Kd of the following sequence strictly smaller than 300 nM? RVYANLGER
Out: true (1)

In: Hello, is Kd of the following sequence strictly smaller than 300 nM? SAQCFKMFYK
Out: true (1)

In: Hello, is Kd of the following sequence strictly smaller than 300 nM? AQGLVASIK
Out: true (1)

In: Hello, is Kd of the following sequence strictly smaller than 300 nM? TLQGPPGTGK
Out: true (1)

In: Hello, is Kd of the following sequence strictly smaller than 300 nM? KVNSTLEQY
Out: false (0)

In: Hello, is Kd of the following sequence strictly smaller than 300 nM? IQFMMSRRR
Out: false (0)

In: Hello, is Kd of the following sequence strictly smaller than 300 nM? ATSRTLSYYK
Out: true (1)

In: Hello, is Kd of the following sequence strictly smaller than 300 nM? KTVQFCDAMR
Out: true (1)

In: Hello, is Kd of the following sequence strictly smaller than 300 nM? YVKSPKFSK
Out: true (1)

In: Hello, is Kd of the following sequence strictly smaller than 300 nM? STCFKLMLK
Out: true (1)

In: Hello, is Kd of the following sequence strictly smaller than 300 nM? AVLDMCAALK
Out: true (1)

====

SYSTEM TESTED: HLA-B*08:01
PROTOCOL NOTES: IEDB peptide-MHC binding, purified MHC/competitive/radioactivity; filed as Kd, often an IC50 or EC50 that approximates it; bounds were set here for any values at or beyond the usual limits of such assays
MEASUREMENT PARAMETERS: source organism: Vaccinia virus WR
pKd: −log10 of the molar value.
Parameter threshold = 8. Response is satisfied when pKd meets or exceeds it, else not satisfied.

In: Answer whether pKd of LMYILGTYG is greater than or equal to 8.
Out: not satisfied

In: Answer whether pKd of ILRKIFYSV is greater than or equal to 8.
Out: satisfied

In: Answer whether pKd of NNRYRFAFL is greater than or equal to 8.
Out: not satisfied

In: Answer whether pKd of NNRVLFNNF is greater than or equal to 8.
Out: not satisfied

In: Answer whether pKd of ISWMMKLGI is greater than or equal to 8.
Out: not satisfied

====

SYSTEM TESTED: HLA-A*02:02
PROTOCOL NOTES: IEDB peptide-MHC binding, purified MHC/competitive/radioactivity; filed as Kd, often an IC50 or EC50 that approximates it; bounds were set here for any values at or beyond the usual limits of such assays
MEASUREMENT PARAMETERS: source organism: Vaccinia virus WR
pKd: −log10 of the molar value.
Kindly state pKd for each of the entries shown.

In: I am curious: what pKd value has been reported for ATCALVSDCA ?
Out: ≤ 4.46

In: I am curious: what pKd value has been reported for EIDVSEVKT ?
Out: ≤ 4.34

In: I am curious: what pKd value has been reported for KIQLFSDFTI ?
Out: ≤ 4.15

In: I am curious: what pKd value has been reported for ETIQKDINI ?
Out: ≤ 4.44

In: I am curious: what pKd value has been reported for ELEKCTSEI ?
Out: ≤ 4.68

In: I am curious: what pKd value has been reported for PLHIVCSKTV ?
Out: ≤ 4.46

====

SYSTEM TESTED: HLA-A*11:01
PROTOCOL NOTES: IEDB peptide-MHC binding, purified MHC/competitive/radioactivity; filed as Kd, often an IC50 or EC50 that approximates it; bounds were set here for any values at or beyond the usual limits of such assays
MEASUREMENT PARAMETERS: source organism: Vaccinia virus WR
PROPERTY: Kd (nM)
Reply numerically in nM, unit not repeated.

In: I am curious: what Kd value has been reported for YIFPGDKTSY ?
Out: 1260

In: I am curious: what Kd value has been reported for TQFNFNGHTY ?
Out: 965

In: I am curious: what Kd value has been reported for STYSDICSK ?
Out: 0.706

In: I am curious: what Kd value has been reported for RVLFSIFYK ?
Out: 53.2

In: I am curious: what Kd value has been reported for ILKKLSSIK ?
Out: 1090

In: I am curious: what Kd value has been reported for TIAGGVCYY ?
Out: 94.7

In: I am curious: what Kd value has been reported for IINFTISMRY ?
Out: 1.71

In: I am curious: what Kd value has been reported for TIPIGMQFDK ?
Out: 4.02

In: I am curious: what Kd value has been reported for PTFQLLNMIK ?
Out: 93.8

In: I am curious: what Kd value has been reported for ITTDDLVKSY ?
Out: 11000

====

SYSTEM TESTED: HLA-A*68:01
PROTOCOL NOTES: IEDB peptide-MHC binding, purified MHC/competitive/radioactivity; filed as Kd, often an IC50 or EC50 that approximates it; bounds were set here for any values at or beyond the usual limits of such assays
MEASUREMENT PARAMETERS: source organism: Vaccinia virus WR
pKd: −log10 of the molar value.
Kindly state pKd for each of the entries shown.

In: I am curious: what pKd value has been reported for QLPKRGVRVR ?
Out: ≤ 4.70

In: I am curious: what pKd value has been reported for PVETLFGSY ?
Out: ≤ 4.47

In: I am curious: what pKd value has been reported for KFGKNHIHR ?
Out: ≤ 4.31

In: I am curious: what pKd value has been reported for PTFQLLNMIK ?
Out: ≤ 5.00

====

Kindly state pKd for each of the entries shown.
SYSTEM TESTED: HLA-A*32:01
PROTOCOL NOTES: IEDB peptide-MHC binding, purified MHC/competitive/radioactivity; filed as Kd, often an IC50 or EC50 that approximates it; bounds were set here for any values at or beyond the usual limits of such assays
MEASUREMENT PARAMETERS: source organism: Dengue virus 2 Jamaica/1409/1983
pKd: −log10 of the molar value.

In: Checklist item: pKd tested on HLA-A*32:01, entry DEDCAHWKEA , value?
Out: ≤ 4.16

In: Checklist item: pKd tested on HLA-A*32:01, entry IGVIITWIGM , value?
Out: ≤ 4.23

In: Checklist item: pKd tested on HLA-A*32:01, entry TASILLWYAQ , value?
Out: ≤ 4.48

====

SYSTEM TESTED: HLA-A*03:01
PROTOCOL NOTES: IEDB peptide-MHC binding, purified MHC/competitive/radioactivity; filed as Kd, often an IC50 or EC50 that approximates it; bounds were set here for any values at or beyond the usual limits of such assays
MEASUREMENT PARAMETERS: source organism: Vaccinia virus WR
PROPERTY: log10 of Kd (log10 of the value in µM)
Each number you see is log10 of Kd, and the unit inside the log is µM.

In: I am curious: what log10 of Kd value has been reported for LLHCVTESY ?
Out: 0.59

In: I am curious: what log10 of Kd value has been reported for ITDMINASLK ?
Out: -0.82

In: I am curious: what log10 of Kd value has been reported for LLRHYYNKR ?
Out: 0.48

In: I am curious: what log10 of Kd value has been reported for MTLVPVLEK ?
Out: -1.60

In: I am curious: what log10 of Kd value has been reported for STQSVLCVK ?
Out: -0.83

In: I am curious: what log10 of Kd value has been reported for KFTILEYLY ?
Out: 0.85

In: I am curious: what log10 of Kd value has been reported for NMRDLIVTFR ?
Out: 1.02

In: I am curious: what log10 of Kd value has been reported for IINDKGKQY ?
Out: 0.29

In: I am curious: what log10 of Kd value has been reported for TSMMVILPDK ?
Out: -0.85

In: I am curious: what log10 of Kd value has been reported for PTFQLLNMIK ?
Out: 0.96

In: I am curious: what log10 of Kd value has been reported for IISEEYLSK ?
Out: -0.99

In: I am curious: what log10 of Kd value has been reported for RVLFSIFYK ?
Out: -2.27

In: I am curious: what log10 of Kd value has been reported for SFSNTIQSY ?
Out: 1.07
